- experimentDescription: Apparent permeability in […] LLC-MDR1 cell
- Assay type: ADME, cell-based
- experimentalContext: LLC-PK1
experimentalReadout: Papp (×10⁻⁶ cm/s)

// query Which Papp value belongs to Cn1cc(-c2cc(C(N)=O)nc3cc(CN4CCOC(C(F)(F)F)C4)ccc23)cn1 (racemic) ?
// result 30

// query Which Papp value belongs to Cn1cc(Cc2ccc3c(-c4ccc(F)cc4)cc(C(N)=O)nc3c2)cn1 ?
// result 31

// query Which Papp value belongs to NC(=O)c1cc(-c2ccc(F)cc2)c2ccc(CN3CCNC(C(F)(F)F)C3)cc2n1 (racemic) ?
// result 27

// query Which Papp value belongs to NC(=O)c1cc(-c2ccc(F)cc2)c2ccc(C(N3CCOCC3)C(F)(F)F)cc2n1 (racemic) ?
// result 28

###

- experimentDescription: Solubility of the compound at pH 7
- Type: physicochemical
- experimentalContext: buffer, read-out: solubility
experimentalReadout: solubility (µM)

Consider the reported solubility for these compounds:
// query Which solubility value belongs to CC(C)(C(=O)N1CCOCC1)c1ccc2c(-c3ccc(F)cc3)cc(C(N)=O)nc2c1 ?
// result 143

// query Which solubility value belongs to CC(c1ccc2c(-c3cnn(C)c3)cc(C(N)=O)nc2c1)c1cnn(CC(F)(F)F)c1 (racemic) ?
// result 107

(P) CC1CN(Cc2ccc3c(-c4ccc(F)cc4)cc(C(N)=O)nc3c2)CCO1 (racemic)
(Q) CC1CN(Cc2ccc3c(-c4cnn(C)c4)cc(C(N)=O)nc3c2)CCO1 (racemic)
// query Which entry has a larger number for solubility, P or Q ? Give the label of your selection.
// result Q
(Q: 175 µM, P: 103 µM)

###

- assayedTarget: Nuclear receptor subfamily 1 group I member 2 (Homo sapiens)
- Sequence (O75469 whole entry): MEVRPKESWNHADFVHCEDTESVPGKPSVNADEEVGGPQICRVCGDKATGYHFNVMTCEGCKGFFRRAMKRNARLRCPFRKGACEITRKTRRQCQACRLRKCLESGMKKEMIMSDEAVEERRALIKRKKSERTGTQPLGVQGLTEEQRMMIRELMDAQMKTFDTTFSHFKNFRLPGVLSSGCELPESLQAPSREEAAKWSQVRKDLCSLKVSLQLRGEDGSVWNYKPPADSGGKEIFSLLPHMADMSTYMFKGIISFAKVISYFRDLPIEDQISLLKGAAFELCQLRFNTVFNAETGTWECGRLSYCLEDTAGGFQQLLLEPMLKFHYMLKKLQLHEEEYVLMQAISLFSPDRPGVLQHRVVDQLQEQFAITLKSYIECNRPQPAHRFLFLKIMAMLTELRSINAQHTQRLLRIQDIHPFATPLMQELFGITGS
- experimentDescription: Agonist activity at PXR (unknown origin)
pEC50: −log10 of the molar value.
experimentalReadout: pEC50

Consider the reported pEC50 for these compounds:
// query Which pEC50 value belongs to CC1CN(Cc2ccc3c(-c4cnn(C)c4)cc(C(N)=O)nc3c2)CCO1 (racemic) ?
// result < 4.52

// query Which pEC50 value belongs to NC(=O)c1cc(-c2ccc(F)cc2)c2ccc(CCc3cncnc3)cc2n1 ?
// result < 4.52

// query Which pEC50 value belongs to CC(C)C1CN(Cc2ccc3c(-c4cnn(C)c4)cc(C(N)=O)nc3c2)CCO1 (racemic) ?
// result 4.54

// query Which pEC50 value belongs to NC(=O)c1cc(-c2ccc(F)cc2)c2ccc(CNCC(F)(F)F)cc2n1 ?
// result < 4.52

// query Which pEC50 value belongs to Cc1ncc(-c2cc(C(N)=O)nc3cc(CN4C(=O)CCC4=O)ccc23)s1 ?
// result 5.22

// query Which pEC50 value belongs to Cc1ncc(NCc2ccc3c(-c4ccc(F)cc4)cc(C(N)=O)nc3c2)cn1 ?
// result < 4.52

// query Which pEC50 value belongs to CC1CN(Cc2ccc3c(-c4ccc(F)cc4)cc(C(N)=O)nc3c2)CCO1 (racemic) ?
// result < 4.52

Next, consider the following compound.
// query Which pEC50 value belongs to CN(C)C(=O)C(C)(C)c1ccc2c(-c3ccc(F)cc3)cc(C(N)=O)nc2c1 ?
// result 5.46
